Experiment: Multi-component pharmacokinetics of AAs in rats after oral administration of AF and HAF extracts (HPLC-MS/MS of plasma)
Parameters: species or system Sprague–Dawley (SD) rats
Conditions: Sprague-Dawley, rat, in vivo, 3 mg/kg, HAF extract, low dose (3.0 mg/kg as AA I), analyte dose mg/kg: AA I 3.0, AA II 0.26, AA C 1.53, AA D 1.51, 7-OH AA I 2.48, n = 6, read-out: CLz/F (converted)
Recorded CL/F, one value per entry.
QUANTITY: CL/F (mL/min/kg)

COc1c(O)ccc2c1cc([N+](=O)[O-])c1c(C(=O)O)cc3c(c12)OCO3 | 81.3
COc1cccc2c1cc([N+](=O)[O-])c1c(C(=O)O)cc3c(c12)OCO3 | 9.83
COc1cc(O)cc2c1cc([N+](=O)[O-])c1c(C(=O)O)cc3c(c12)OCO3 | 158
O=C(O)c1cc2c(c3c1c([N+](=O)[O-])cc1ccccc13)OCO2 | 1.33

---

Experiment: Multi-component pharmacokinetics of AAs in rats after oral administration of AF and HAF extracts (HPLC-MS/MS of plasma)
Parameters: species or system Sprague–Dawley (SD) rats
Settings: Sprague-Dawley, rat, in vivo, 15 mg/kg, HAF extract, high dose (15.0 mg/kg as AA I), analyte dose mg/kg: AA I 15.0, AA II 1.29, AA C 7.66, AA D 7.56, 7-OH AA I 12.41, n = 6
Description: An aliquot (100 μl) of rat plasma was spiked with 10.0 μL IS, and vortexed with 300 μL acetic ether for 10 s before the supernatant was transferred into centrifuge tube. The extraction was repeated with 200 μL acetic ether. […] After the oral administration of AF and HAF extracts, rat plasma samples were prepared and analyzed as described above. Five main AAs can be detected in rat blood with the proposed HPLC-MS/MS method. […]
QUANTITY: Tmax (min)

O=C(O)c1cc2c(c3c1c([N+](=O)[O-])cc1ccccc13)OCO2 | 55.8
COc1cccc2c1cc([N+](=O)[O-])c1c(C(=O)O)cc3c(c12)OCO3 | 28.2
COc1cc(O)cc2c1cc([N+](=O)[O-])c1c(C(=O)O)cc3c(c12)OCO3 | 37.8
COc1c(O)ccc2c1cc([N+](=O)[O-])c1c(C(=O)O)cc3c(c12)OCO3 | 31.8

---

Experiment: Stability of AAs in rat plasma (QC samples, HPLC-MS/MS)
Format: in vitro ADME
Conditions: rat plasma stored at –20 °C for 14 days; high QC conc ng/mL: AA I 1830, AA II 3200, AA C 2980, AA D 3680, 7-OH AA I 3280; n = 5
Description: The QC samples were assayed under several different conditions to evaluate the stability of AAs in rat plasma. The freeze-thaw stability of the analyte was determined over three freeze-thaw cycles. In each freeze-thaw cycle, the samples were frozen and stored at –20 °C for 24 h, then thawed at room temperature. […] Stability was evaluated by comparing the mean concentration of the stored samples with the mean concentration of those prepared freshly. […]
QUANTITY: Long-term stability (RSD/%)

COc1cccc2c1cc([N+](=O)[O-])c1c(C(=O)O)cc3c(c12)OCO3 [AA I] | 7.6
COc1cc(O)cc2c1cc([N+](=O)[O-])c1c(C(=O)O)cc3c(c12)OCO3 [AA D] | 12.7
COc1c(O)ccc2c1cc([N+](=O)[O-])c1c(C(=O)O)cc3c(c12)OCO3 [7-OH AA I] | 11.1
O=C(O)c1cc2c(c3c1c([N+](=O)[O-])cc1ccccc13)OCO2 [AA II] | 7.3

Value source: paper PMC5303205
